- STUDY SYSTEM: UniProt:P48736
- Sequence (P48736 whole entry): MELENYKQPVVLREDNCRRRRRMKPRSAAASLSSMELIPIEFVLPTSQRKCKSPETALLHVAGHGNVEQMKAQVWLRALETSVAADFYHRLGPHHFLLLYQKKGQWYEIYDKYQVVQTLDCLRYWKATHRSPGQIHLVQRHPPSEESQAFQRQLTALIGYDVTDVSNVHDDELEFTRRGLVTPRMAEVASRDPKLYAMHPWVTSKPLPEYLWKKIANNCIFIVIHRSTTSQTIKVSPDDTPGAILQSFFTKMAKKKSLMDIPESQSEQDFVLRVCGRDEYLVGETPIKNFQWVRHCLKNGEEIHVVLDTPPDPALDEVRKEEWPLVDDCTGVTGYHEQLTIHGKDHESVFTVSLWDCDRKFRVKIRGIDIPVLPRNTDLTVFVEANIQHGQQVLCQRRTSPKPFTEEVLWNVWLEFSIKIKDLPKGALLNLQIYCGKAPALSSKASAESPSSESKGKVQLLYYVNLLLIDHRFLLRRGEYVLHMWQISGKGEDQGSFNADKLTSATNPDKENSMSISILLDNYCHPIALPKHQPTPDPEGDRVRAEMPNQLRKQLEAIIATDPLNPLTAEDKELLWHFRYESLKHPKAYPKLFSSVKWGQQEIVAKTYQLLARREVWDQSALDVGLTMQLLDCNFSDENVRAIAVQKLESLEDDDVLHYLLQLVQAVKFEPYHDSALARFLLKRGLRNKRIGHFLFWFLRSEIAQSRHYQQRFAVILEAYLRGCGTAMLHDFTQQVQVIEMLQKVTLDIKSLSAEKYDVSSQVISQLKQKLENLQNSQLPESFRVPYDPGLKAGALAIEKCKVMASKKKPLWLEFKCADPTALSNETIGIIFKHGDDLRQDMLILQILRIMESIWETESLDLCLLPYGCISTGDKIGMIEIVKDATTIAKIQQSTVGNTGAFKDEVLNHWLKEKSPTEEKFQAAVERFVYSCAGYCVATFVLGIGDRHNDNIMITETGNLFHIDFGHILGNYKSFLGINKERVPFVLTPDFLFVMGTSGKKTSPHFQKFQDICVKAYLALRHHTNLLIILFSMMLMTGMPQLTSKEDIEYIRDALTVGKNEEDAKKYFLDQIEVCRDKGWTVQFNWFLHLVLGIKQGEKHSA
REPORTED METRIC: IC50

- MOLECULE: "Cc1cccc2cc(Cn3nc(C#C[C@@H](C)O)c4c(N)ncnc43)n(C3CCCC3)c(=O)c12 [Compound 65]"
  STUDY SYSTEM: "UniProt:P48736"
  IC50: "< 10 µM"
- MOLECULE: "Cc1ccccc1-n1c(Cn2nc(-c3cc(O)cc(F)c3)c3c(N)ncnc32)cc2cccc(F)c2c1=O [Compound 55]"
  STUDY SYSTEM: "UniProt:P48736"
  IC50: "< 1 µM"
- MOLECULE: "Cc1cccc2cc([C@H](C)Nc3ncnc4[nH]cc(Br)c34)n(C3CC3)c(=O)c12 [Compound 272]"
  STUDY SYSTEM: "UniProt:P48736"
  IC50: "< 0.1 µM"

Lookup: IC50 / UniProt:P48736 / Cc1cccc2cc([C@H](C)Nc3ncnc4[nH]nc(C#N)c34)n(-c3ccccc3)c(=O)c12 [Compound 255]
< 0.1 µM

Lab note: need IC50 with UniProt:P48736 for entry Cc1cccc2cc([C@H](C)Nc3nc(Cl)nc4[nH]cnc34)n(-c3ccccc3)c(=O)c12 [Compound 244] , please look it up.
< 0.1 µM

Query IC50 on UniProt:P48736 for COc1ccccc1-n1c(Cn2nc(I)c3c(N)ncnc32)cc2cccc(C)c2c1=O [Compound 70]
< 1 µM

Can you look up IC50 on UniProt:P48736 for Cc1cccnc1-n1c(Cn2nc(I)c3c(N)ncnc32)cc2ccccc2c1=O [Compound 92] ?
< 10 µM

Notebook: pull reported IC50 for UniProt:P48736, entry Cc1cccc2cc(Cn3nc(C#N)c4c(N)ncnc43)n(-c3ccccc3F)c(=O)c12 [Compound 169]
> 10 µM

Observed IC50 on UniProt:P48736 for Cc1cccc2cc(Cn3nc(/C=C4/CCNC4=O)c4c(N)ncnc43)n(-c3ccccc3F)c(=O)c12 [Compound 172] , please.
> 10 µM

GET /values?readout=IC50&system=UniProt:P48736&item= CC(=O)Nc1nc2ccc(-c3nn(Cc4cc5cccc(C)c5c(=O)n4-c4ccccc4C)c4ncnc(N)c34)cc2o1 [Compound 266]
< 0.1 µM

Given the entry Cc1cccc2cc([C@H](C)Nc3nc(N)ncc3Cl)n(C3CC3)c(=O)c12 [Compound 267] , what IC50 was observed with UniProt:P48736?
< 1 µM
